tested on: HS 578T breast; experiment: NCI-60 one-dose screen, 48 h (100 = growth as untreated, 0 = no growth, -100 = all killed); conditions: 10 µM unless noted
Compounds without any hit were thinned out: in the full panel of roughly 83,000, 20% have a hit.
growth values for the compounds below.
measurement label: growth (%)

[
  {
    "compound": "Cn1cc(C(=O)C[n+]2ccccc2)c2ccccc21",
    "readout units": "%",
    "result": 96.8
  },
  {
    "compound": "O=[N+]([O-])c1cc(Br)c(O)c(Br)c1",
    "readout units": "%",
    "result": 109
  },
  {
    "compound": "CN1CCN(c2ccc(Cl)cc2)CC1",
    "readout units": "%",
    "result": 101
  },
  {
    "compound": "C[C@]12CCc3sc(Nc4ccc(F)cc4F)nc3C1=CC[C@@H]1[C@@H]2CC[C@]2(C)C(=O)CC[C@@H]12",
    "readout units": "%",
    "result": 55.3
  },
  {
    "compound": "Cc1ccc(S(=O)(=O)n2cc([C@@]3(O)C[C@H](CSC#N)OC3=O)c3ccccc32)cc1",
    "readout units": "%",
    "result": 44.4
  },
  {
    "compound": "CSc1cc(/C=C(\\C)[C@@H]2C[C@@H]3O[C@]3(C)CCC[C@H](C)[C@H](O)[C@@H](C)C(=O)C(C)(C)[C@@H](O)CC(=O)O2)n(CCNC(=O)OC(C)(C)C)n1",
    "readout units": "%",
    "result": 75.5
  },
  {
    "compound": "O=S(OO)c1cc(Cl)c(O)c(Cl)c1 (stereo not given)",
    "readout units": "%",
    "result": 104
  },
  {
    "compound": "CNC(=O)CCl",
    "readout units": "%",
    "result": 104
  },
  {
    "compound": "Oc1ccccc1C=NCCN=Cc1ccccc1O.[Fe]",
    "readout units": "%",
    "result": 77.3
  },
  {
    "compound": "O=C(Cc1ccccc1)c1ccccc1",
    "readout units": "%",
    "result": 90.3
  },
  {
    "compound": "C[C@]12CCc3sc(Nc4ccc(OC(F)(F)F)cc4)nc3C1=CC[C@@H]1[C@@H]2CC[C@]2(C)C(=O)CC[C@@H]12",
    "readout units": "%",
    "result": 38.5
  },
  {
    "compound": "ClCc1ccc(Cl)c(Cl)c1",
    "readout units": "%",
    "result": 103
  },
  {
    "compound": "CC(C)COC(=O)Cc1ccccc1",
    "readout units": "%",
    "result": 102
  },
  {
    "compound": "O=C/C=C/c1ccco1",
    "readout units": "%",
    "result": 107
  },
  {
    "compound": "O=C(O)C1C(C(=O)O)C2(Cl)C(Cl)=C(Cl)C1(Cl)C2(Cl)Cl (stereo not given)",
    "readout units": "%",
    "result": 116
  },
  {
    "compound": "CC(=O)Cc1ccc2c(c1)OCO2",
    "readout units": "%",
    "result": 111
  },
  {
    "compound": "CC1=C([Te]c2ccccc2)C(=O)c2ccccc2C1=O",
    "readout units": "%",
    "result": -22.4
  },
  {
    "compound": "COC(=O)[C@@H](C)C[C@H](Cc1ccccc1)NC(=O)c1cccc([C@@H](C[C@H](C(C)C)N(C)C(=O)[C@@H](NC(=O)[C@H]2CCCCN2C)C2CC2)OC(C)=O)n1",
    "readout units": "%",
    "result": 27
  },
  {
    "compound": "C[C@]12CC[C@H]3[C@@H](C[C@@H]4SC(Nc5ccccc5)=N[C@@]45C/C(=N/O)CC[C@]35C)[C@@H]1CCC2=O",
    "readout units": "%",
    "result": 65.2
  },
  {
    "compound": "Nc1ccc2c(c1)Cc1cc(N)ccc1-2",
    "readout units": "%",
    "result": 84.4
  }
]
